All figures here come from patent US6545002B1.

- assaySystem: human A2B receptors (hA2B) (Homo sapiens, UniProt P29275)
- Construct: expressed in transfected cells; host or cells: HEK-293 (HEK-A2B, G418-selected)
- Sequence (P29275 1-332): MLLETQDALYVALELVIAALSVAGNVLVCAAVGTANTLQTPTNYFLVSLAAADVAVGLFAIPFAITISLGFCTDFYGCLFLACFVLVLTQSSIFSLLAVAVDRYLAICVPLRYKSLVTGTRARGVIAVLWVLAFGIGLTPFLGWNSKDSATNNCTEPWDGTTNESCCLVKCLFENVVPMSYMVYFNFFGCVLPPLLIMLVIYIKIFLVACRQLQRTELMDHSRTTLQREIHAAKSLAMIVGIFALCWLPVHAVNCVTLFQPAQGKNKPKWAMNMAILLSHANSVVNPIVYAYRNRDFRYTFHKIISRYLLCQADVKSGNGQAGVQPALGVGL
- testDetails: Radioligand binding ([125I]ABOPX / [3H]ZM241385) at human A2B receptors expressed in HEK-293 cells
- conditionsUsed: Table 4; footnote a: [125I]-ABOPX; read-out: hA2B Ki (value marked ^a) (converted)
Item-by-item account of Ki
Express it in nM; write the number only.

Some compounds with known Ki results, for comparison:
CCCn1c(=O)c2[nH]c(-c3ccc(OCC(=O)NNC(C)=O)cc3)nc2n(CCC)c1=O : 33.8
CCCn1c(=O)[nH]c(=O)c2[nH]c(-c3ccc(OCC(=O)NN4C(=O)C(C)=C(C)C4=O)cc3)nc21 : 1900
CCCn1c(=O)c2[nH]c(-c3ccc(OCC(=O)NN4C(=O)C(C)=C(C)C4=O)cc3)nc2n(CCC)c1=O : 33.8
CCCn1c(=O)c2[nH]c(-c3ccc(OCC(=O)NNC(=O)CCC(=O)O)cc3)nc2n(CCC)c1=O : 97.8

Next item in the queue.
-- ask Find Ki (human A2B receptors (hA2B) (Homo sapiens, UniProt P29275)) for the entry "CCCn1c(=O)c2[nH]c(-c3ccc(OCC(=O)NN4C(=O)c5ccccc5C4=O)cc3)nc2n(CCC)c1=O"
-- reply 46.4

----------
- assaySystem: rat A1 receptors (rA1) (Rattus norvegicus)
- Construct: to A1 receptors from rat cerebral cortical membranes; from tissue; host or cells: rat cerebral cortical (brain) membranes
- Sequence (P25099 whole entry): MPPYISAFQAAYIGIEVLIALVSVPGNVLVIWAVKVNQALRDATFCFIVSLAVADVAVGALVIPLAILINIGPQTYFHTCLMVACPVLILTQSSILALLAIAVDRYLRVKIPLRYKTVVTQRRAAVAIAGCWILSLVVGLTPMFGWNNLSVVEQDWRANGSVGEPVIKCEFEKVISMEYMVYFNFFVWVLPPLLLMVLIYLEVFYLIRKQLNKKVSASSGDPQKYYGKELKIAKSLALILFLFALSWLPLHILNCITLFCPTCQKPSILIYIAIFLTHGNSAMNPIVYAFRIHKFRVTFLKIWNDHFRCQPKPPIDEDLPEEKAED
- testDetails: Displacement of [3H]R-PIA binding in rat brain (cerebral cortical) membranes
- conditionsUsed: Table 3; read-out: rA1 Ki or IC50
Item-by-item account of Ki
Express it in nM; write the number only.

CCn1c(=O)c2[nH]c(-c3ccc(OCC(=O)Nc4ccc(C)cc4)cc3)nc2n(CC)c1=O : 34.9

-- ask Name the reported Ki value associated with the compound "CCCn1c(=O)c2[nH]c(-c3ccc(/C=C/C(=O)Nc4ccccc4C(C)=O)cc3)nc2n(CCC)c1=O"
-- reply 7.67

-- ask Name the reported Ki value associated with the compound "CCCn1c(=O)c2[nH]c(-c3ccc(/C=C/C(=O)NN4C(=O)C(C)=C(C)C4=O)cc3)nc2n(CCC)c1=O"
-- reply 3.94

----------
- assaySystem: human A3 receptors (hA3) (Homo sapiens, UniProt P0DMS8)
- Construct: expressed in transfected cells; host or cells: HEK-293
- Sequence (P0DMS8 whole entry): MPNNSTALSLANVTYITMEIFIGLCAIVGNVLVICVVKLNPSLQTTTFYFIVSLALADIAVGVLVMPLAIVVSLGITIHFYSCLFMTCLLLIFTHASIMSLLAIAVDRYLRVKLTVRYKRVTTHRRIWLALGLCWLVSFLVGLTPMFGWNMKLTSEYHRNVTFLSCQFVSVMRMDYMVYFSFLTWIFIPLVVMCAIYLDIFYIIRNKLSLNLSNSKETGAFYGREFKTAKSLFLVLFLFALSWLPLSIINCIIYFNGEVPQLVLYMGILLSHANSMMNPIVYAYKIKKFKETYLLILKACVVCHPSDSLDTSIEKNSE
- testDetails: Displacement of [125I]ABA binding at human A3 receptors expressed in HEK-293 cells
- conditionsUsed: Table 2; read-out: hA3 Ki or IC50
Item-by-item account of Ki
Express it in nM; write the number only.

CCCn1c(=O)c2[nH]c(-c3ccc(OCC(=O)Nc4ccc(F)cc4)cc3)nc2n(CCC)c1=O [Compound 30] : 391
CCCn1c(=O)c2[nH]c(-c3ccc(OCC(=O)Nc4ccc(C(=O)OC)cc4)cc3)nc2n(CCC)c1=O [Compound 21] : 363
CCCn1c(=O)c2[nH]c(-c3ccc(OCC(=O)Nc4ccc(C(C)=O)cc4)cc3)nc2n(CCC)c1=O [Compound 20] : 230

-- ask Name the reported Ki value associated with the molecule CCCn1c(=O)c2[nH]c(-c3ccc(OCC(=O)Nc4ccc([N+](=O)[O-])cc4)cc3)nc2n(CCC)c1=O [Compound 28]
-- reply 138

-- ask Name the reported Ki value associated with the molecule CCCn1c(=O)c2[nH]c(-c3ccc(OCC(=O)Nc4ccc(Cl)cc4)cc3)nc2n(CCC)c1=O [Compound 31]
-- reply 1870

-- ask Name the reported Ki value associated with the molecule CCCn1c(=O)c2[nH]c(-c3ccc(OCC(=O)Nc4ccccc4)cc3)nc2n(CCC)c1=O [Compound 12]
-- reply 137
